Can you tell me z-score for the items I'm about to list?
assay: PSAC antagonists in infected red cells, primary screen, cell-based, P. falciparum Indochina, OD700, 18 h (AID 1157); conditions: P. falciparum Indochina infected erythrocytes, osmotic lysis OD700, 18 h; higher = more signal, called active from +8 up or from −8 down
Numbers only.

Please state z-score for every compound in the list that follows.
1. C=CCOC(=O)[C@@H]1[C@H]2C(=O)O[C@H](c3ccccc3)[C@H](c3ccccc3)N2[C@H](c2ccc(OCCOC(=O)[C@@H]3C[C@@H]4C(=O)N[C@@H](CCCC[N+](C)(C)C)C(=O)N4[C@@H]3c3cccc(OCCO)c3)cc2)[C@@]12C(=O)Nc1ccc(I)cc12
2. C#CCN(CC1=CCCCC1)[C@H](c1ccccc1Br)[C@@H](O)Cc1ccccc1

Return:
1: 1.01; 2: 0.109

###

target: Alpha-bungarotoxin (Bungarus multicinctus); assay: alpha-bungarotoxin binders on microarray, profiling panel, artefact control for SMM control protein annotation, biochemical, small-molecule microarray, Alexa647 label, 635/667 nm fluorescence (AID 1117); conditions: alpha-BTX-A647 binding fluorescence, higher = more signal
Assay Endpoint: composite z-score
One number for each entry.

Example entries begin here.
[[record]]
compound = "CCCC[C@H]1OB(O)C[C@H]2C1=C(COc1ccccc1)C[C@H]1C(=O)N(C)C(=O)[C@H]12"
assay_endpoint = "composite z-score"
value_reported = 0.0648

[[record]]
compound = "C=C(CCCC)C(=O)CC[C@H](OC(=O)c1cccnc1)c1ccccc1OCCO"
assay_endpoint = "composite z-score"
value_reported = -0.0583


Below is a list of compounds. For each, state its recorded composite z-score.
1. O=C1OCCC/C=C\[C@H]2OC34C=CCN(Cn5nnc6ccccc65)C(=O)[C@H]3N(CCCCCCO)C(=O)[C@@H]4C12 (stereo partly specified)
2. COCCOC(=O)N1C(=O)[C@@]2(c3cc(C#CC4(O)CCCCCC4)ccc31)[C@H](c1ccc(O)cc1)N1[C@H](c3ccccc3)[C@H](c3ccccc3)OC(=O)[C@H]1[C@@H]2C(=O)Nc1nc2ccccc2s1
3. CCCCC=C[C@@H](NC(=O)Oc1cccc(C(F)(F)F)c1)c1ccccc1
4. O=C1OCC=C[C@H]2OC34C=CCN(CCN5CCOCC5)C(=O)[C@H]3N(CCCO)C(=O)[C@@H]4[C@@H]12 (stereo partly specified)

Return:
-0.716
2.21
1.62
-0.0967

###

assay: small-molecule microarray binders of probe aDKK1, primary screen, biochemical, biotinylated probe, 635/667 nm fluorescence (AID 1099); conditions: higher = more signal;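 note: score merges 667nm spot fluorescence with signal to noise across triplicate slides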
Cut-off 0.07 on composite z-score, inclusive. At or above means 1 (yes); below means 0 (no).

# example entries with known answers
[[record]]
molecule = "O=C1OCCC/C=C\\[C@H]2OC34C=CCN(Cn5nnc6ccccc65)C(=O)[C@H]3N(CCCCCCO)C(=O)[C@@H]4C12 (stereo partly specified)"
class_name = "0 (no)"

[[record]]
molecule = "COc1ccc([Si](C)(C)[C@H]2[C@H](CCn3cc([C@H](O)c4ccccc4)nn3)O[C@@]3(C(=O)N(Cc4cccc(N5CCOC5=O)c4)c4ccccc43)[C@@H]2C)cc1"
class_name = "1 (yes)"


Enquiry: Has COc1cc2c(cc1O)C(C1CC1)N(Cc1cc3c(cc1Br)OCO3)CC2 (stereo unspecified) a recorded composite z-score greater than or equal to 0.07?
Return: 0 (no)

Enquiry: Confirm if composite z-score reported for the molecule "C=CC[C@@]1(C(=O)N(C)C)N=C(c2ccc(OCCCO)cc2)O[C@@H]1c1ccccc1N=[N+]=[N-]" is 0.07 or above.
Return: 1 (yes)

Enquiry: Quick check, composite z-score >= 0.07? COc1ccc(C(O)C2C=CC3C(=O)N(c4ccccc4)C(=O)C3N2Nc2ccccc2F)cc1OCc1ccccc1 (stereo unspecified)
Return: 1 (yes)

Enquiry: hey, is composite z-score for this one >= 0.07? "Cc1ccc(S[C@]2(C(=O)NC(C)C)CC(=O)N(Cc3ccccc3Cl)[C@@H]2c2ccc(CO)cc2I)cc1"
Return: 0 (no)

###

target: Focal adhesion kinase 1 (Homo sapiens) (UniProt Q05397); assay: small-molecule microarray binders of FAK, primary screen, biochemical, 635/667 nm fluorescence, BSA, DTT (AID 1130); conditions: PTK2 binding, 635 nm fluorescence, higher = more signal;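 note: composite of spot emission at 667 nm and signal to noise over triplicate slides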
Sequence (Q05397 whole entry, looked up): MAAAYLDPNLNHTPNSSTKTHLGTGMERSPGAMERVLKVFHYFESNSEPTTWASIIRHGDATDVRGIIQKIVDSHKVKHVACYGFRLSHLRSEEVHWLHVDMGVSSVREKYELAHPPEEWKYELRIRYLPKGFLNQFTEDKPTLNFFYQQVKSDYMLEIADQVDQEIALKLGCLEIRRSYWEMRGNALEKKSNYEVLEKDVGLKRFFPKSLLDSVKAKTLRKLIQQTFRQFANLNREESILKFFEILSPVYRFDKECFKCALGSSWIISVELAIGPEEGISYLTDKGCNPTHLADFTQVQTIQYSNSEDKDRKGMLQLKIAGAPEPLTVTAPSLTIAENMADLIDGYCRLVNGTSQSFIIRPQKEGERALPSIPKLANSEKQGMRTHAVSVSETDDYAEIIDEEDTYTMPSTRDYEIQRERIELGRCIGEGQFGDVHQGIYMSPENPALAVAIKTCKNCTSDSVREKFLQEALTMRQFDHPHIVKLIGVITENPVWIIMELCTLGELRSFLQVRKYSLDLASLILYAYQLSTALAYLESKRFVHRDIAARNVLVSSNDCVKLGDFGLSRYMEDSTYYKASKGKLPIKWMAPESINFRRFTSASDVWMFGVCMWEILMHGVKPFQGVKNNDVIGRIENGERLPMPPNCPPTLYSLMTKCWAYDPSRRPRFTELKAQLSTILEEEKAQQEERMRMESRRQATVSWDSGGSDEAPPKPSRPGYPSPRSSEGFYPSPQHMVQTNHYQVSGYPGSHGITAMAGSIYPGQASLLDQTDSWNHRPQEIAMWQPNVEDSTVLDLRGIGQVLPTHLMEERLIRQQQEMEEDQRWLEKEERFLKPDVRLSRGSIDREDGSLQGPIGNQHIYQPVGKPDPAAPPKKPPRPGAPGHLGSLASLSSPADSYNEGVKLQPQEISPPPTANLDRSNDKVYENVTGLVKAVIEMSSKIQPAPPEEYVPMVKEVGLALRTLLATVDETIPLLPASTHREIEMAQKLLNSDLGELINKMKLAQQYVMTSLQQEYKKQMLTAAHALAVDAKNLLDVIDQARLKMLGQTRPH
Is composite z-score at least 0.8? Then YES. If not, NO.

[[record]]
compound = "Cc1ccc(C(C)CC(O)C2C=CC3C(=O)N(C)C(=O)C3N2NC(=O)OC(C)(C)C)o1 (centres undefined)"
class_name = "NO"

[[record]]
compound = "CC(C)(C)C(=O)N[C@@H](c1ccc(Cl)cc1)[C@]1(C)C[C@H]1C1CCCCC1"
class_name = "YES"

[[record]]
compound = "COCCOC(=O)N1C(=O)[C@@]2(c3cc(C#CCCO)ccc31)[C@H](C(=O)N1CCN(c3ncccn3)CC1)[C@H]1C(=O)O[C@H](c3ccccc3)[C@H](c3ccccc3)N1[C@@H]2c1ccccc1OCCO"
class_name = "YES"

[[record]]
compound = "C=CCC(OC(C)=O)[C@@H]1[C@@H](N(Cc2ccc(-c3cccc(C(F)(F)F)c3)o2)C(=O)c2ccc(-c3ccccc3)cc2)c2cc(OCCCO)ccc2N1C(=O)c1ccc(-c2ccccc2)cc1 (some centres undefined)"
class_name = "NO"

[[record]]
compound = "COCCOC(=O)N1C(=O)[C@@]2(c3ccccc31)[C@H](c1ccc(O)cc1)N1[C@H](c3ccccc3)[C@H](c3ccccc3)OC(=O)[C@H]1[C@@H]2C(=O)NC[C@H](O)c1ccccc1"
class_name = "NO"


Enquiry: Is composite z-score for CN1C(=O)C2C=CC(C(O)c3cc(C(F)(F)F)cc(C(F)(F)F)c3)N(N3CCCCC3)C2C1=O (centres undefined) at or above 0.8?
Return: NO

Enquiry: hey, is composite z-score for this one >= 0.8? CCCCCN1CC=CC23O[C@@H]4/C=C\CCCOC(=O)C4[C@H]2C(=O)N(C(CO)C(C)C)[C@@H]3C1=O (some centres undefined)
Return: NO

###

biological target: Neurogenic locus notch homolog protein 3 (Homo sapiens); assay: NOTCH3 binders on small-molecule microarray, primary screen, biochemical, 635/667 nm fluorescence (AID 1096); details: NOTCH3 binding, 635 nm fluorescence, higher = more signal
Consider the following molecules; for each one, report its composite z-score.

Record excerpt, results attached:
[[record]]
test_smiles = "O=C1c2ccccc2[C@](Cc2ccccc2I)(C(=O)NC2CC2)[C@H](c2ccc(CO)cc2)N1Cc1ccccc1"
assay_endpoint = "composite z-score"
value_reported = 0.566

[[record]]
test_smiles = "C=CCOC(=O)[C@@H]1[C@H]2C(=O)O[C@H](c3ccccc3)[C@H](c3ccccc3)N2[C@H](c2ccc(OCCOC(=O)[C@@H]3C[C@@H]4C(=O)N[C@@H](CCCC[N+](C)(C)C)C(=O)N4[C@@H]3c3cccc(OCCO)c3)cc2)[C@@]12C(=O)Nc1ccc(I)cc12"
assay_endpoint = "composite z-score"
value_reported = 1.13

[[record]]
test_smiles = "C=CCN1C(=O)[C@@]2(O[C@@H](CCO)[C@H]([Si](C)(C)c3ccc(OC)cc3)[C@H]2C)c2cc(NC(=O)c3ccc(OC)cc3)ccc21"
assay_endpoint = "composite z-score"
value_reported = 0.861

[[record]]
test_smiles = "O=C(O)[C@@]1(CCS(=O)(=O)c2ccccc2)COC(c2ccc(OCCCO)cc2)=N1"
assay_endpoint = "composite z-score"
value_reported = -0.395

[[record]]
test_smiles = "COC(=O)[C@@]1(Cc2ccc(F)cc2)[C@H]2c3cc(C(=O)N4CCCC4)n(Cc4cc(C)n(C)n4)c3C[C@H]2CN1C(=O)c1ccccc1"
assay_endpoint = "composite z-score"
value_reported = 0.769

[[record]]
test_smiles = "COCCn1c(C(=O)N2CCCC2)cc2c1C[C@H]1CN(C(=O)c3ccccc3)[C@@](Cc3ccc(F)cc3)(C(=O)OC)[C@@H]21"
assay_endpoint = "composite z-score"
value_reported = 0.583


Please turn your attention to the following entry.
Enquiry: GET /values?readout=composite z-score&item= "CCOC(=O)C[C@H]1[C@H](OC(=O)Cc2ccc3c(c2)OCO3)[C@@H](NC(=O)c2ccc(-c3ccccc3)cc2)c2cc(OCCCO)ccc2N1C(=O)c1ccc2ccccc2n1"
Return: 0.257

###

Exercise: for every item that follows, state its recorded z-score.
test: RPMI8226 myeloma cell viability, profiling panel, resazurin fluorescence, basal, 24 h, PK04 Diversity Set (AID 1180); settings: higher = more signal;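 note: RPMI8826 multiple myeloma cell line at 5000 cells per well; test concentration not given here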
Give bare numbers.

Use these answered entries as a reference point.
[[record]]
compound = "O=C1C2C=CC(C(O)c3c(F)cccc3Cl)N(Nc3ccccc3)C2C(=O)N1c1ccccc1 (centres undefined)"
assay_endpoint = "z-score"
value_reported = 0.284

[[record]]
compound = "COc1ccc(C(O)C2C=CC3C(=O)N(c4ccccc4)C(=O)C3N2Nc2ccc(C(C)C)cc2)cc1OCc1ccccc1 (centres undefined)"
assay_endpoint = "z-score"
value_reported = -0.291

[[record]]
compound = "[N-]=[N+]=NCc1ccccc1C[C@]1(C(=O)O)N=C(c2ccc(OCCCO)cc2)O[C@H]1c1ccccc1N=[N+]=[N-]"
assay_endpoint = "z-score"
value_reported = -1.82


Below is a list of compounds. For each, state its recorded z-score.
1. CN1C(=O)C2C=CC(C(O)C3CC=CCC3)N(NC(=O)OC(C)(C)C)C2C1=O (centres undefined)
2. COC(=O)[C@@]1(Cc2ccc(OC)cc2)[C@H]2c3cc(C(=O)N(C)C)n(CCN4CNCC4=O)c3C[C@H]2CN1C(=O)c1ccccc1
3. CN1C(=O)C2C=CC(C(O)c3ccc(I)cc3)N(N3CCCCC3)C2C1=O (centres undefined)
4. COCCn1c(C(=O)N2CCCC2)cc2c1C[C@H]1CN(C(=O)c3ccccc3)[C@@](Cc3ccc(F)cc3)(C(=O)OC)[C@@H]21
5. C=CC[C@]12N=C(c3ccc(OCCCO)cc3)O[C@H]1c1ccccc1N(Cc1ccccc1)C2=O

Return:
-1
0.777
-1.26
-1.37
-2.3

List reported z-score for each of these compounds:
1. Cc1ccc(S[C@]2(C(=O)NCC(F)(F)F)CC(=O)N(C(C)C)[C@@H]2c2ccc(CO)cc2I)cc1
2. Cc1ccc(S[C@]2(C(=O)NCCN3CCOCC3)CC(=O)N(Cc3ccccc3Cl)[C@@H]2c2ccc(CO)cc2)cc1
3. [N-]=[N+]=Nc1ccccc1C[C@@]1(C(=O)NCCN2CCOCC2)N=C(c2ccc(OCCCO)cc2)O[C@@H]1c1ccccc1
4. COCCCNC(=O)[C@@]1(Cc2ccccc2N=[N+]=[N-])N=C(c2ccc(OCCCO)cc2)O[C@H]1c1ccccc1N=[N+]=[N-]
5. COc1cc2c(cc1OC)CN(C(=O)[C@@H]1[C@H]3C(=O)O[C@H](c4ccccc4)[C@H](c4ccccc4)N3[C@H](c3ccc(O)cc3)[C@@]13C(=O)Nc1ccc(C#CC4(O)CCCCCC4)cc13)CC2
6. CN1C(=O)C2C=CC(C(O)Cc3ccccc3)N(Nc3ccccc3)C2C1=O (centres undefined)
7. CN1C(=O)[C@]2(Cc3ccccc3)N=C(c3ccc(OCCCO)cc3)O[C@@H]2c2ccccc21
8. COc1ccc(C(O)C2C=CC3C(=O)NC(=O)C3N2Nc2ccccn2)c2ccccc12 (centres undefined)

Return:
1: -2.05; 2: 0.958; 3: -0.125; 4: -1.99; 5: 0.777; 6: -0.541; 7: -2.41; 8: -1.24

Working through the 3 compounds below one at a time, give z-score for each.
1. O=C1[C@H]2C=C(Br)[C@H](C[C@@H]2OCCCCO)[C@@]12CO2
2. CN1C(=O)C2C=CC(C(O)c3ccccc3)N(Nc3ccccc3)C2C1=O (centres undefined)
3. O=C1OCC=C[C@H]2OC34C=CCN(CCN5CCOCC5)C(=O)[C@H]3N(CCCO)C(=O)[C@@H]4[C@@H]12 (some centres undefined)

Return:
1. -0.133
2. -1.52
3. -0.0279
